Test system: 4T1 cells
Test Summary: Hoechst viability assay, 4T1 breast carcinoma cells (Dox combination)
Format: cell-based, murine
Condition Details: Mus musculus, 72 hours, 3 experiments
Quick reference for pIC50 among some compounds
# pIC50 = -log10(concentration in molar units)

CCCC(CCC)C(=O)Nc1nc2c(ncn2COCCOC(=O)C(CCC)CCC)c(=O)[nH]1 [Compound 6] | 4.47

Now let's try a different one.
// query # input compound: COc1cccc2c1C(=O)c1c(O)c3c(c(O)c1C2=O)C[C@@](O)(C(=O)CO)C[C@@H]3O[C@H]1C[C@H](N)[C@H](O)[C@H](C)O1 [doxorubicin, reference compound] ; wanted: its pIC50
// result 7.78
